test: Absorption and emission spectra of AP site binding probes in ethanol; assay type: physicochemical
recorded-endpoint: λabs max (nm)
Supply the numeric figure in nm, leaving out any unit text.

compound	λabs max [nm]
CCCN1/C(=C/C=C2\CCCC(/C=C/C3=[N+](CCC)c4ccccc4C3(C)C)=C2Oc2ccc(CC(=O)NCCCON)cc2)C(C)(C)c2ccccc21 [Cy7MX, 2,2,2-trifluoroacetate]	770

Problem: Given the entry NOCCCOc1ccc2cc(-c3ccc([N+](=O)[O-])cc3)c(=O)oc2c1 [NpCMX] , report its measured λabs max.
Solution: 365

Problem: Given the entry CCCN1/C(=C/C=C(/C=C/C2=[N+](CCC)c3ccccc3C2(C)C)c2ccc(C(=O)NCCCON)cn2)C(C)(C)c2ccccc21 [Cy5MX, 2,2,2-trifluoroacetate] , report its measured λabs max.
Solution: 640

###

assay: Absorption and emission spectra of AP site binding probes in ethanol; assay type: physicochemical
recorded-endpoint: λabs max (nm)
Supply the numeric figure in nm, leaving out any unit text.

cpd-smiles	assay-result
CN(C)c1cccc2c(S(=O)(=O)NOCCCON)cccc12	340
NOCCCOc1ccc2cc(-c3ccc(N)cc3)c(=O)oc2c1	370

Now examine the next entry.
Problem: Given the entry `Cc1cc(=O)oc2cc(OCCCON)ccc12` , report its measured λabs max.
Solution: 325
